Tested on: Chordin-like protein 2 (CHRDL2)
Assay: CHRDL2 small-molecule binders, primary screen, biochemical, small-molecule microarray, 635 nm fluorescence (AID 1126);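 further: printed compound slides probed with Chrdl2 protein at 4 µg/mL for 1 h at 4 C; score merges 667 nm emission intensity with signal to noise over three replicate slides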
Conditions: small-molecule microarray binding, fluorescence 635 nm; higher = more signal
PROPERTY LABEL: composite z-score
// return just the number, without any unit appended

Solved cases (2 shown):
[
  {
    "COMPOUND": "C=C(C)C1CN([C@H](CO)c2ccccc2)C(=O)/C1=C\\c1ccccc1 (some centres not stated)",
    "ASSAYED SYSTEM": "Chordin-like protein 2 (CHRDL2)",
    "composite z-score": 0.467
  },
  {
    "COMPOUND": "CN1C(=O)C2C=CC(C(O)c3ccc(I)cc3)N(N(c3ccccc3)c3ccccc3)C2C1=O (configuration not stated)",
    "ASSAYED SYSTEM": "Chordin-like protein 2 (CHRDL2)",
    "composite z-score": 0.0635
  }
]

Here CC[C@@H](O[Si](C#C[Si](C(C)C)(C(C)C)C(C)C)(C(C)C)C(C)C)c1cn([C@H](C)c2ccccc2)nn1 was tested on Chordin-like protein 2 (CHRDL2), and its composite z-score came to 0.26

Here C=CCNC(=O)[C@@H]1[C@H]2C(=O)O[C@H](c3ccccc3)[C@H](c3ccccc3)N2[C@H](c2ccc(OCCO)cc2)[C@@]12C(=O)N(C(=O)OCCOC)c1ccccc12 was tested on Chordin-like protein 2 (CHRDL2), and its composite z-score came to 0.389

Here CCCC[C@@H](O)C1=C(C)Cn2c(=O)n(-c3ccccc3)c(=O)n2[C@H]1CO was tested on Chordin-like protein 2 (CHRDL2), and its composite z-score came to 0.24

Here CC(C)C[C@@H]1NC(=O)[C@@H]2C[C@H](C(=O)NCCCCCCNC(=O)CS)[C@H](c3ccc(O)cc3)N2C1=O was tested on Chordin-like protein 2 (CHRDL2), and its composite z-score came to 1.26

Here COc1cc2c(cc1OC)CN(C(=O)[C@@H]1[C@H]3C(=O)O[C@H](c4ccccc4)[C@H](c4ccccc4)N3[C@H](c3ccc(O)cc3)[C@@]13C(=O)Nc1ccc(C#CC4=CCCCC4)cc13)CC2 was tested on Chordin-like protein 2 (CHRDL2), and its composite z-score came to 0.153

* * *

System: Sonic hedgehog protein (Shh)
Assay: small-molecule binders of Shh protein, primary screen, biochemical, small-molecule microarray, 635/667 nm fluorescence (AID 1151);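 further: Shh protein binding to compounds spotted on small-molecule microarray slides; score combines spot fluorescence intensity with signal-to-noise across triplicate slides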
Conditions: small-molecule microarray binding, 635 nm fluorescence; higher = more signal
The following molecules are listed with their measured composite z-score values.

Solved cases (5 shown):
[
  {
    "MOLECULE": "CC[C@H]1C2=C3C(CC[C@H]4C(OCc5ccc(F)cc5C(F)(F)F)OC[C@](C)([C@@H]34)N(C(=O)OC(C)(C)C)C2)C(COC(C)=O)C1COC(C)=O (some centres not stated)",
    "RESULT": -1.2
  },
  {
    "MOLECULE": "CC(C)N1C(=O)[C@@]2(Cc3ccccc31)c1ccccc1C(=O)N(Cc1ccccc1C(F)(F)F)[C@H]2c1ccc(CO)cc1",
    "RESULT": 0.376
  },
  {
    "MOLECULE": "CCOC(=O)C[C@H]1[C@H](OC(=O)c2ccccc2-c2ccccc2)[C@@H](NC(=O)CC(C)C)c2cc(OCCCO)ccc2N1C(=O)c1ccccc1",
    "RESULT": 1.51
  },
  {
    "MOLECULE": "COC(=O)[C@@]1(Cc2ccc(F)cc2)[C@H]2c3cc(C(=O)N(C)C)n(Cc4ccsc4Br)c3C[C@H]2CN1C(=O)c1ccccc1",
    "RESULT": -0.635
  },
  {
    "MOLECULE": "COCCOC(=O)N1C(=O)[C@@]2(c3cc(C#CC4(O)CCCCCC4)ccc31)[C@H](C(N)=O)[C@H]1C(=O)O[C@H](c3ccccc3)[C@H](c3ccccc3)N1[C@@H]2c1ccc(OCCO)cc1",
    "RESULT": 1.24
  }
]

Kindly review the next molecule as well.
// CN1C(=O)C2C=CC(C(O)COCc3ccccc3)N(Nc3ccc([N+](=O)[O-])cc3[N+](=O)[O-])C2C1=O (configuration not stated) : composite z-score value = -0.997

These measurements were taken from PubChem BioAssay.
